Origin of measurements: ChEMBL document CHEMBL1138245

experimental.details: Drug level in Sprague-Dawley rat plasma at 3 mg/kg, ip after 1 hr
Assay type: ADME, organism-based
Parameters: dose 3 mg/kg, route intraperitoneal

# structure.smiles, concentration at 1 h
rows = [
    ("NCCc1cn(S(=O)(=O)c2c(Cl)nc3sccn23)c2ccccc12", "0.021 µg/mL"),
]

* * *

experimental.details: Volume of distribution in dog at 1 mg/kg, iv
Type: ADME, organism-based, Canis lupus familiaris
Set-up: dose 1 mg/kg, route intravenous
condition.context: in vivo, read-out: Vdss

# structure.smiles, Vd, L/kg
records = [
    ("NCCc1cn(S(=O)(=O)c2c(Cl)nc3sccn23)c2ccccc12", 7.9),
]
